- Tested on: Escherichia coli
- run-description: Antibacterial activity against Escherichia coli ATCC 25922 assessed as bacterial growth inhibition by CLSI protocol agar-based assay
- Type: functional
Attribute: MIC
Answer format: numeric, µg/mL implied, no suffix.

Record excerpt, results attached:
CN(C)C(=O)Cn1c(=O)ccc2ncc(F)c(CCC34CCC(NCc5ccc6c(n5)NC(=O)CO6)(CC3)CO4)c21 ... 32
COc1ccc2nc(CNC34CCC(CCc5c(F)cnc6ccc(=O)n(CCO)c56)(CC3)OC4)c(F)c(C)c2n1 ... 32
O=c1ccc2ncc(F)c3c2n1C[C@@]3(O)CC12CCC(NCc3cc4c(cn3)OCCO4)(CC1)CO2 ... 16

Look up MIC of O=C1COc2ccc(C(=O)NC34CCC(CCc5c(F)cnc6ccc(=O)n(CCO)c56)(CC3)OC4)nc2N1 and report it. 16

Provide one value: measured MIC of NCCn1c(=O)ccc2ncc(F)c(CCC34CCC(NCc5ccc6c(n5)NC(=O)CO6)(CC3)CO4)c21 1

###

- Test system: Pseudomonas aeruginosa
- run-description: Antibacterial activity against Pseudomonas aeruginosa PAO1 assessed as bacterial growth inhibition by CLSI protocol agar-based assay
- Format: functional
# MIC values compiled below

Consider the following illustrative entries.
CS(=O)(=O)NCCn1c(=O)ccc2ncc(F)c(CCC34CCC(NCc5ccc6c(n5)NC(=O)CO6)(CC3)CO4)c21 ... 32 µg/mL
O=c1ccc2ncc(F)c(CCC34CCC(NCc5cc6c(cn5)OCCC6)(CC3)CO4)c2n1CCO ... > 64 µg/mL

Below: the item to evaluate.
Provide measured MIC value, entry: O=C(NC12CCC(CCc3c(F)cnc4ccc(=O)n(CCO)c34)(CC1)OC2)c1cc2c(cn1)OCCO2 > 32 µg/mL

###

Examples of molecules with documented MIC follow.
- Test system: Escherichia coli
- run-description: Antibacterial activity against Escherichia coli ATCC 25922 assessed as bacterial growth inhibition by CLSI protocol agar-based assay
- Format: functional

Known results for molecules:
CC(C)(O)Cn1c(=O)ccc2ncc(F)c(CCC34CCC(NCc5ccc6c(n5)NC(=O)CO6)(CC3)CO4)c21 ... > 64 µg/mL
O=C(NC12CCC(CCc3c(F)cnc4ccc(=O)n(CCO)c34)(CC1)OC2)c1cc2c(cn1)OCCC2 ... > 32 µg/mL

Let us move to another entry and its MIC.
Could you please provide reported MIC for O=c1ccc2ncc(F)c(CCC34CCC(NCc5cnc(-c6ccccn6)s5)(CC3)CO4)c2n1CCO ? Thanks! > 32 µg/mL

###

- System: Pseudomonas aeruginosa
- run-description: Antibacterial activity against Pseudomonas aeruginosa PAO1 assessed as bacterial growth inhibition by CLSI protocol agar-based assay
- Assay type: functional
# MIC annotations

Return MIC (reported value) for this compound: CC(C)(O)Cn1c(=O)ccc2ncc(F)c(CCC34CCC(NCc5ccc6c(n5)NC(=O)CO6)(CC3)CO4)c21 > 64 mg/L

Note down MIC recorded for O=c1ccc2ncc(F)c(CCC34CCC(NCc5ccc6nsnc6c5)(CC3)CO4)c2n1CCO > 64 mg/L

Indicate the recorded MIC value for this compound: Cn1cc(-c2ncc(CNC34CCC(CCc5c(F)cnc6ccc(=O)n(CCO)c56)(CC3)OC4)s2)cn1 > 32 mg/L

Give the measured MIC for O=c1ccc2ncc(F)c(CCC34CCC(NCc5cnc(-c6ccncc6)s5)(CC3)CO4)c2n1CCO > 32 mg/L
